# measurement target: Cad1 (UniProt P24813)
# Sequence: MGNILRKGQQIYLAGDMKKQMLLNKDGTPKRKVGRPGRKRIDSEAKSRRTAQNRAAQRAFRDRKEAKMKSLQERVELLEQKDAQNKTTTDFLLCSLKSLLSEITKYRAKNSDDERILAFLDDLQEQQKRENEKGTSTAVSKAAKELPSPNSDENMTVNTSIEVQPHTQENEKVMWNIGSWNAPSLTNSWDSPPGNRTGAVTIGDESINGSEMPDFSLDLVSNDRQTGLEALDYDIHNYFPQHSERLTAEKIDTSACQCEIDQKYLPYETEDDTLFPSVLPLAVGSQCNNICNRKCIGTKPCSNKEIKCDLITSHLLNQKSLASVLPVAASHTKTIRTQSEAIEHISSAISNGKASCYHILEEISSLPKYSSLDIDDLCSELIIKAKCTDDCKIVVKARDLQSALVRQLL
# assay name: PBM E-score (8-mer binding enrichment) (E-score (-0.5 to 0.5)); higher = stronger / more preferred TF binding
# test conditions: protein concentration: 100 nM; construct: GST-full length
In all, about 33,000 sequences were measured (“E-score (-0.5 to 0.5)”: median about -0.0014, highest 2% from about 0.25 on). The full list was thinned out, with the highest values kept by preference.
Property: PBM E-score; scope: individual sequences
Give only the figure.

# example entries with known answers
1. CCAGGGCG: -0.18
2. GCTAGTCA: -0.0828
3. CGGGTAGA: 0.0106

From here, focus on the item given below.
Documented PBM E-score of CAATCGAA : 0.0916

###

# measurement target: Cad1 (UniProt P24813)
# Sequence: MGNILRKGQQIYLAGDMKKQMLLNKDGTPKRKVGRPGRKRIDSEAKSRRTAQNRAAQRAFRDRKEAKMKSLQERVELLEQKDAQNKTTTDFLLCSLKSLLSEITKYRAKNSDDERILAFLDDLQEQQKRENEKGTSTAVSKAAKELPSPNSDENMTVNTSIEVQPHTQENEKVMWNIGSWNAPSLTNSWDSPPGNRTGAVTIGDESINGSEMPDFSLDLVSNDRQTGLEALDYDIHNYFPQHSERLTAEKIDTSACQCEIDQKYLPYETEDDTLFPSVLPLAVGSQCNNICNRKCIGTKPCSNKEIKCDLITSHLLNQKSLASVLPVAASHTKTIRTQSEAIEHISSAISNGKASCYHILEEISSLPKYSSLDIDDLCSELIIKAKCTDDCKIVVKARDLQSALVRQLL
# assay name: PBM E-score (8-mer binding enrichment) (E-score (-0.5 to 0.5)); higher = stronger / more preferred TF binding
# test conditions: protein concentration: 100 nM; construct: GST-full length
In all, about 33,000 sequences were measured (“E-score (-0.5 to 0.5)”: median about -0.0014, highest 2% from about 0.25 on). Shown is part of a subset that was picked to be rich in the highest values.
Binary call on PBM E-score: True from 0.0004 upward, False beneath that.

1) CACATGTA: True

Is PBM E-score for CATAATAA at or above 0.0004?
False

Is PBM E-score for ATCCGTTA at or above 0.0004?
True

Is PBM E-score for AGCCAACT at or above 0.0004?
False

Is PBM E-score for CCCGCGGA at or above 0.0004?
True

Is PBM E-score for AACTAATG at or above 0.0004?
True

###

# measurement target: Cad1 (UniProt P24813)
# Sequence: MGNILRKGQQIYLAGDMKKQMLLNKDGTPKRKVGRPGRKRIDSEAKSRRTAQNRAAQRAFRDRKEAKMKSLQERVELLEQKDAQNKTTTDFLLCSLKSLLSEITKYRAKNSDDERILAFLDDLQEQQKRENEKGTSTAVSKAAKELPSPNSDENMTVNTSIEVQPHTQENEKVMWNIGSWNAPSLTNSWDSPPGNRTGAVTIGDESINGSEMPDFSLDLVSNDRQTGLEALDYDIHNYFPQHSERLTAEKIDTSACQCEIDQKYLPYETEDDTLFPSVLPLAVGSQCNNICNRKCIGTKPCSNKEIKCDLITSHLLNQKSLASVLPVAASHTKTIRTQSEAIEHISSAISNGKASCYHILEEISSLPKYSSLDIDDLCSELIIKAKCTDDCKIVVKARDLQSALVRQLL
# assay name: PBM E-score (8-mer binding enrichment) (E-score (-0.5 to 0.5)); higher = stronger / more preferred TF binding
# test conditions: protein concentration: 100 nM; construct: GST-full length
Whole data set: some 33,000 sequences, median “E-score (-0.5 to 0.5)” near -0.0014, cut for the highest 2% near 0.25. This is one part of a sample in which the highest values are shown more often than they occur.
observed property: PBM E-score
Give only the figure.

# example entries with known answers
1) AAAAATTT: 0.269
2) CCGTAATC: 0.143
3) AGCCGGCG: 0.0742
4) ATGCATCG: 0.114
5) AGGTACCC: -0.138
6) CAATTCGC: 0.322
7) AGAAATTC: 0.13
8) CTTACATC: -0.00465
9) GATATGGA: 0.266
10) ATCCACTA: 0.127

CCGAAGAG on Cad1 (UniProt P24813) gives PBM E-score = -0.0285

GACATATA on Cad1 (UniProt P24813) gives PBM E-score = 0.0919

TACATATA on Cad1 (UniProt P24813) gives PBM E-score = 0.252

CCGTATTC on Cad1 (UniProt P24813) gives PBM E-score = -0.0178

GTACTTCA on Cad1 (UniProt P24813) gives PBM E-score = 0.251

###

# measurement target: Cad1 (UniProt P24813)
# Sequence: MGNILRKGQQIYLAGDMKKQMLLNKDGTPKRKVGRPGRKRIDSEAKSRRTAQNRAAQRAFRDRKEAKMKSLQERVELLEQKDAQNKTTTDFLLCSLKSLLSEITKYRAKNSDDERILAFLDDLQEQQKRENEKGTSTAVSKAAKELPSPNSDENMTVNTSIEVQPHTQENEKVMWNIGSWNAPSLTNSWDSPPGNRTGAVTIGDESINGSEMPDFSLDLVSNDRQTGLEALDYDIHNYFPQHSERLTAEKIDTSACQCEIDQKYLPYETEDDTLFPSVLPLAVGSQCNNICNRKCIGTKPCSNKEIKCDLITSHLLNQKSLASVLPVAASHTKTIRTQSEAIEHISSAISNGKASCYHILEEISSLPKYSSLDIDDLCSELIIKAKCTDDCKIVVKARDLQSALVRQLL
# assay name: PBM E-score (8-mer binding enrichment) (E-score (-0.5 to 0.5)); higher = stronger / more preferred TF binding
# test conditions: protein concentration: 100 nM; construct: GST-full length
Whole data set: some 33,000 sequences, median “E-score (-0.5 to 0.5)” near -0.0014, cut for the highest 2% near 0.25. What follows is part of a selection rich in the highest values, with near analogues and random picks from the rest.
observed property: PBM E-score

1) ACTACTAA: 0.158
2) ATGTAACG: 0.257
3) GGCACACC: -0.298

Documented PBM E-score of ATGTAATG : 0.281

Documented PBM E-score of ATGTAATA : 0.334

Documented PBM E-score of AGTAATAT : 0.346

Documented PBM E-score of AATAATAT : 0.208

Documented PBM E-score of ATGTAACA : 0.168

Documented PBM E-score of AGTAATAC : 0.21

Documented PBM E-score of GCCCCAGA : -0.158

Documented PBM E-score of ATGTAATC : 0.168

###

Property: PBM E-score; scope: individual sequences
# measurement target: Cad1 (UniProt P24813)
# Sequence: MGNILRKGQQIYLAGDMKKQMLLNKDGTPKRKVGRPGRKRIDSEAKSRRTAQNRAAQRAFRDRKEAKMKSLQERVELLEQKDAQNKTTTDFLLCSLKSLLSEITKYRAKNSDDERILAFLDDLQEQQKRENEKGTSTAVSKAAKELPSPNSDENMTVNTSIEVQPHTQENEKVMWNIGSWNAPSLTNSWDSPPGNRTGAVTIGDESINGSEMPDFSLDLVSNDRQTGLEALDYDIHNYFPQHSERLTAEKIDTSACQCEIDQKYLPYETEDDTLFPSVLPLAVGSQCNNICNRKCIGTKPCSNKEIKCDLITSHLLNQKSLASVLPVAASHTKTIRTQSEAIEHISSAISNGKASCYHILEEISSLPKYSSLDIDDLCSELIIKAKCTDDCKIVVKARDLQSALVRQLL
# assay name: PBM E-score (8-mer binding enrichment) (E-score (-0.5 to 0.5)); higher = stronger / more preferred TF binding
# test conditions: protein concentration: 100 nM; construct: GST-full length
In all, about 33,000 sequences were measured (“E-score (-0.5 to 0.5)”: median about -0.0014, highest 2% from about 0.25 on). What follows is part of a selection rich in the highest values, with near analogues and random picks from the rest.

1. AATTAGGG: -0.172
2. CCCCTGCA: -0.246
3. CATGGAAA: 0.161

Documented PBM E-score of GGTGCTGA : -0.0741

Documented PBM E-score of AAGTCTAG : -0.155
